assay_text: Cmax in C57BL/6 mouse plasma at 23.4 mg/kg, po administered as single dose measured 24 hrs by UPLC-MS/MS analysis
Format: ADME, organism-based
Parameters: dose 23.4 mg/kg, route oral
measured_attribute: Cmax (ng/mL)
Field format: number, assumed ng/mL, no unit text.

Would you mind telling me what Cmax value was observed for CN(CC(=O)O)[C@H](CC#N)Cc1ccc(OCc2ccc(Cl)c(Cl)c2)cc1 ? 16800

* * *

assay_text: Tmax in C57BL/6 mouse plasma at 24.5 mg/kg, po administered as single dose measured 24 hrs by UPLC-MS/MS analysis
Format: ADME, organism-based
measured_attribute: Tmax (h)
Field format: number, assumed h, no unit text.

Would you mind telling me what Tmax value was observed for C[C@H](Cc1ccc(OCc2ccc(Br)c(Cl)c2)cc1)N(C)CC(=O)O ? 1
